A collection of molecules and their measured GI50
Test system: 786-0
test: NCI tumour cell line growth inhibition, 48 h
Active and inactive are the calls of the source. No stated cut-off is given here; in the data, active = GI50 up to about 1.1 µM and inactive = higher.
assayMetric: GI50

1. c1nc(NCCc2c[nH]cn2)c2nc[nH]c2n1: > 100 µM (inactive)
2. COc1cc(Br)c(CC2=NCCc3cc(OC)c(OC)cc32)cc1OC: 16.7 µM (inactive)
3. CN1CC=C(C#CC(C)(C)O)CC1: > 37.5 µM (inactive)

* * *

System: HL-60
test: NCI tumour cell line growth inhibition, 48 h
Calls of active or inactive are those of the source. No stated cut-off is given here; in the data, active = GI50 up to about 1.1 µM and inactive = higher.
A collection of compounds and their measured GI50
assayMetric: GI50

1) CCOC(=O)C(C(=O)c1ccccc1)=C1NCCN1: > 100 µM (inactive)
2) Cn1c(C(C)(C)OC(=O)Oc2ccccc2)cnc1[N+](=O)[O-]: 36.5 µM (inactive)
3) Cn1ccnc1Sc1ccc(/C=N/c2ccc3nc(SCC(=O)NC4CCCCC4)sc3c2)cc1[N+](=O)[O-]: > 100 µM (inactive)
4) CN(C1=NCCO1)c1cccc2c1CCCC2: 4.41 µM (inactive)
5) CCN(CC)CCNC(=O)c1ccccc1NC(=O)C(=O)Nc1ccccc1C(=O)NCCN(CC)CC: 15.2 µM (inactive)

* * *

Tested on: EKVX
test: NCI tumour cell line growth inhibition, 48 h
Activity calls are given as the source filed them. Cut-off read from the data, not from the text of the source: active = GI50 up to about 1.1 µM and inactive = higher.
A collection of compounds and their measured GI50
assayMetric: GI50

1) CN1CCN(c2ccncc2S(=O)(=O)N2CCN(C)CC2)CC1: > 100 µM (inactive)
2) O=C1NC(=O)C2C3C=CC(C12)C1C2C(=O)NC(=O)C2C31 (configuration not stated): 234 µM (inactive)
3) COc1ccc(Cc2nn(C3OC(COC(C)=O)C(OC(C)=O)C(OC(C)=O)C3OC(C)=O)c(=S)n(-c3ccc(OC)cc3)c2=O)cc1 (configuration not stated): > 54.3 µM (inactive)
4) c1ccc2c3c(ccc2c1)-c1[nH]ncc1CCO3: 13.6 µM (inactive)
5) CC(C)(C)[Si](C)(C)OCC1CCC(n2cnc3c(=O)[nH]cnc32)O1 (configuration not stated): > 100 µM (inactive)
6) C/C(=N\NC(=S)N1CCN(c2ccccn2)CC1)c1cccc2cccnc12: 3.59 µM (inactive)
7) Oc1ccc[nH]c1=[Se]: 25.8 µM (inactive)

* * *

Test system: ACHN
test: NCI tumour cell line growth inhibition, 48 h
Activity calls are given as the source filed them. No stated cut-off is given here; in the data, active = GI50 up to about 1.1 µM and inactive = higher.
assayMetric: GI50

1) CCOC(=O)c1ccc(-c2ccc(Cl)cc2)[nH]1: > 10 µM (inactive)
2) CCOC(=O)c1sc2nc(SC)nc3c2c1NCN3c1ccc(F)c(F)c1: 6.97 µM (inactive)
3) CC1=C(CO)C(=O)O[C@@H]([C@@H](CO)[C@H]2CCC3C4C[C@@H](O)[C@@]5(O)CC=CC(=O)[C@]5(C)C4CC[C@@]32C)C1 (some centres undefined): 36.4 µM (inactive)
4) CCOC(=O)c1cc(C2(OC)CCN(Cc3ccccc3)C2=O)c(-c2cc(C)no2)[nH]1 (centres undefined): > 100 µM (inactive)

* * *

System: SK-MEL-5
test: NCI tumour cell line growth inhibition, 48 h
Calls of active or inactive are those of the source. Rule as the data show it: active = GI50 up to about 1.1 µM and inactive = higher. Where a SMILES comes first, the peptide text is derived from it. The star is where a group is joined. Boc = CC(C)(C)OC(=O)*
Outcomes: active, inactive

1. COC(=O)CCC1=C(CC(=O)OC)C(C)(OC)N/C1=N/C(=O)OCc1ccccc1 (stereo unspecified): inactive
2. O=C(CSc1nnc(Cc2ccccc2)o1)Nc1ccccc1Cl: inactive
3. CCOC1CC(C)N(C(=O)c2ccccc2)O1 (stereo unspecified): inactive
4. CN(C)CCCOCCn1c2c(c3ccccc31)CCCC2: inactive
5. CC1=C(C(=O)Nc2cc(F)c(F)cc2F)C(c2cccc([N+](=O)[O-])c2)C(C(=O)Nc2ccccc2C(F)(F)F)=C(C)N1 (stereo unspecified): inactive
6. CC(C)(C)C1=CC(=C2C=Cc3cc(O)ccc3O2)C=C(C(C)(C)C)C1=O: inactive
7. C=CCNC1=C2C[C@@H](C)C[C@@H](OC)[C@@H](OC(=O)CCCN)[C@H](C)/C=C(\C)[C@@H](OC(N)=O)[C@H](OC)/C=C\C=C(/C)C(=O)NC(=CC1=O)C2=O: inactive
8. C=C1CC2(OC1=O)c1ccccc1CCc1ccccc12: inactive
9. CC(C)(C)OC(=O)NC(Cc1ccccc1)C(=O)N1CCCC1C(N)=O (stereo not drawn) (Boc-Phe-Pro-NH2; configuration not given here): inactive
10. CC[C@H](C)c1occ2c(O)c(C(=O)O)c(=O)cc-2c1C: inactive
11. O=C(O)CCCc1ccc2c(c1)CC1(C2)Cc2cc3c(cc2C1)CCCC3: inactive
12. CC1=NN=C(N)NC1=CC(Sc1ccc(Cl)cc1)c1c(O)ccc2ccccc12 (stereo unspecified): inactive
13. Nc1nc2cc(CNc3ccc(C(=O)NC(CCC(=O)O)C(=O)O)cc3)ccc2nc1-c1ccccc1 (stereo unspecified): inactive
14. CCOc1ccc(NCc2cc(OC)c(OC)c(OC)c2)cc1: active
15. C=CCCCC1CCCNC1=O (stereo unspecified): inactive
16. COc1cccc2c1C(=O)C1=C(C2=O)C(O)CC(C)(C)O1 (stereo unspecified): inactive

* * *

A collection of compounds and their measured GI50
Tested on: RXF 393
test: NCI tumour cell line growth inhibition, 48 h
Active and inactive are the calls of the source. Cut-off read from the data, not from the text of the source: active = GI50 up to about 1.1 µM and inactive = higher.
assayMetric: GI50

1) Cc1ccnc(NS(=O)(=O)c2ccc(NC3=CC(=O)C(=O)c4ccccc43)cc2)n1: > 100 µM (inactive)
2) O=c1[nH]nc(Cc2ccccc2)n1/N=C/c1ccc([N+](=O)[O-])o1: 1.88 µM (inactive)
3) NC(=O)C(Nc1ccc(Cl)cc1)c1cc2cc(Br)ccc2nc1Cl (stereo unspecified): 41.1 µM (inactive)
4) COCc1nc(C#N)c(N)o1: > 10 µM (inactive)
5) COC(=O)[C@@H]1C[C@H]2OC(=O)CC[C@]2(C)O[C@H]1[C@H]1O[C@@](C)(O)CCC[C@H]1C: > 50 µM (inactive)
6) CCCCCCCCCCNC(=S)OCCCC: 34.9 µM (inactive)
7) Cc1c2ccccc2c(C2C3C(=O)N(c4cccc5ccccc45)C(=O)C3ON2Cc2ccc(CC(N)=O)cc2)c2ccccc12 (stereo unspecified): 8.59 µM (inactive)
8) C=C/C(C)=C\CC1[C@](C)(O)CC[C@H]2C(C)(C)C(O)CC[C@]12C (stereo partly specified): 95.1 µM (inactive)
9) COC(=O)c1cccc(N[C@@H]2c3cc4c(cc3C(c3cc(OC)c(O)c(OC)c3)[C@H]3C(=O)OCC32)OCO4)c1 (stereo partly specified): 1.33 µM (inactive)
10) Cc1nc(=O)[nH]c(NCCNCCO)c1C(=O)Nc1cccc2cc3ccccc3cc12: > 100 µM (inactive)
11) C=CCCCC1CCCNC1=O (stereo unspecified): > 100 µM (inactive)
12) CCCCN(CC)C(=O)C(=O)C1C(=O)Nc2ccccc2[S+]1[O-] (stereo unspecified): > 100 µM (inactive)
13) Cc1ccc(C(=O)Nc2ccc(S(=O)(=O)O)c3cc(S(=O)(=O)O)cc(S(=O)(=O)O)c23)cc1NC(=O)c1cccc(N)c1: > 100 µM (inactive)
14) Cc1nnc(Sc2nc(C#N)c(C#N)nc2Sc2nnc(C)s2)s1: 1.92 µM (inactive)
15) CN1NC(c2ccc(Cl)cc2)=C(C#N)C(=O)CC1c1ccccc1 (stereo unspecified): > 100 µM (inactive)
16) CN(C)CCNC(=O)c1cnn(C)c1[N+](=O)[O-]: 65.6 µM (inactive)

* * *

Test system: LOX IMVI
test: NCI tumour cell line growth inhibition, 48 h
Calls of active or inactive are those of the source. No stated cut-off is given here; in the data, active = GI50 up to about 1.1 µM and inactive = higher.
Outcomes: YES for active, NO for inactive

1) COc1cc(O)c2c(=O)cc(C3(O)C=CC(=O)C=C3)oc2c1: YES
2) CN1CCC(C(O)(c2ccccc2)c2ccc(Br)cc2)CC1 (stereo not drawn): NO
3) C=C1c2nc3ccccc3n2C=C(c2ccccc2)N1c1ccc(C)cc1: NO

* * *

System: SK-OV-3
test: NCI tumour cell line growth inhibition, 48 h
Active and inactive are the calls of the source. No stated cut-off is given here; in the data, active = GI50 up to about 1.1 µM and inactive = higher.
Outcomes: T = active, F = inactive

1) Cc1ccnc(NS(=O)(=O)c2ccc(NC3=CC(=O)C(=O)c4ccccc43)cc2)n1: F
2) N#CCCN(c1ccc(C=O)cc1)S(=O)(=O)c1ccccc1: F
3) COc1cc2c[n+](C)c3c4cc(OC)c(OCc5ccccc5)cc4c(OCc4ccccc4)cc3c2cc1OC: F
4) CCN(c1ccccc1)[C@H]1C(=O)N(c2ccc([N+](=O)[O-])cc2)[C@H]1c1ccc(OC)cc1: F
5) Oc1ccc[nH]c1=[Se]: F
6) N#CC(C#N)=C1CCCS(=O)(=O)c2ccccc21: F
7) S=c1sc2c(s1)SCc1cccc(n1)CSc1sc(=S)sc1SCc1cccc(n1)CS2: F
8) COc1ccc(CN(Cc2ccc(OC)cc2)C(=O)CC2(O)C=CCC2)cc1 (stereo unspecified): F
9) CCCCc1c2c(nc3c1CC/C(=C\c1ccccc1)C3=O)CCCC2: F
10) COc1ccc(/C(=N\NC(=O)C(=O)NN)C(c2ccc(OC)cc2)C2(O)C(=O)Nc3ccccc32)cc1 (stereo unspecified): F
11) COc1cc(C2c3cc4c(cc3[C@@H](N(C)c3ccc(N(C)C)cc3)C3COC(=O)C23)OCO4)cc(OC)c1O (stereo partly specified): T
